system: Staphylococcus aureus; test: Antibacterial activity against methicillin-resistant Staphylococcus aureus ATCC USA300 incubated for 16 to 20 hrs by CLSI based broth microdilution method; assay type: functional; details: time 16-20 hrs
Residues, ends and D or L forms follow the SMILES beside them.
OBSERVATION TYPE: MIC (µg/mL)
Answers are plain numbers, in µg/mL.

# count of solved cases: 2
MOLECULE	MIC / µg/mL
CC(C)C[C@@H]1NC(=O)[C@H](CCCNC(=N)N)NC(=O)[C@H](C(C)C)NC(=O)[C@@H]2CCCN2C(=O)[C@@H](Cc2ccccc2)NC(=O)[C@H](CC(C)C)NC(=O)[C@H](CCCN)NC(=O)[C@H](C(C)C)NC(=O)[C@@H]2CCCN2C(=O)[C@@H](CCCNC(=N)N)NC1=O	8
CC(C)C[C@@H]1NC(=O)[C@H](CCCN)NC(=O)[C@H](C(C)C)NC(=O)[C@@H]2CCCN2C(=O)[C@@H](Cc2ccccc2)NC(=O)[C@H](CC(C)C)NC(=O)[C@H](CCCN)NC(=O)[C@H](C(C)C)NC(=O)[C@@H]2CCCN2C(=O)[C@@H](Cc2ccccc2)NC1=O [GRAMICIDIN S] (HELM PEPTIDE1{L.[dF].P.V.[Orn].L.[dF].P.V.[Orn]}$PEPTIDE1,PEPTIDE1,1:R1-10:R2$$$V2.0)	4

Now consider the entry below.
Query :: Quick check: MIC on Staphylococcus aureus, item CC(C)C[C@@H]1NC(=O)[C@H](CCCN)NC(=O)[C@H](C(C)C)NC(=O)[C@@H]2CCCN2C(=O)[C@@H](Cc2ccccc2)NC(=O)[C@H](CC(C)C)NC(=O)[C@H](CCCNC(=N)N)NC(=O)[C@H](C(C)C)NC(=O)[C@@H]2CCCN2C(=O)[C@@H](CCCNC(=N)N)NC1=O (HELM PEPTIDE1{L.[dF].P.V.[Orn].L.[dR].P.V.R}$PEPTIDE1,PEPTIDE1,1:R1-10:R2$$$V2.0) ?
Result :: 8

* * *

assay: Retention time of the compound by RP-HPLC analysis; type: physicochemical
Residues, ends and D or L forms follow the SMILES beside them.
Give Retention_time for every item shown.
Numbers only, in min.

# count of solved cases: 6
COMPOUND	Retention_time (min)
CC(C)C[C@@H]1NC(=O)[C@H](CCCN)NC(=O)[C@H](C(C)C)NC(=O)[C@H](Cc2c[nH]cn2)NC(=O)[C@@H](Cc2ccccc2)NC(=O)[C@H](CC(C)C)NC(=O)[C@H](CCCN)NC(=O)[C@H](C(C)C)NC(=O)[C@H](Cc2c[nH]cn2)NC(=O)[C@@H](Cc2ccccc2)NC1=O	14.74
CC(C)C[C@@H]1NC(=O)[C@H](CCCN)NC(=O)[C@H](C(C)C)NC(=O)[C@@H]2CCCN2C(=O)[C@@H](CCCNC(=N)N)NC(=O)[C@H](CC(C)C)NC(=O)[C@H](CCCN)NC(=O)[C@H](C(C)C)NC(=O)[C@@H]2CCCN2C(=O)[C@@H](CCCNC(=N)N)NC1=O	14.56
CC(C)C[C@@H]1NC(=O)[C@H](CCCN)NC(=O)[C@H](C(C)C)NC(=O)[C@@H]2CCCN2C(=O)[C@@H](Cc2ccccc2)NC(=O)[C@H](CC(C)C)NC(=O)[C@H](CCCNC(=N)N)NC(=O)[C@H](C(C)C)NC(=O)[C@@H]2CCCN2C(=O)[C@@H](Cc2ccccc2)NC1=O	18.74
CC(C)C[C@@H]1NC(=O)[C@H](CCCN)NC(=O)[C@H](C(C)C)NC(=O)[C@@H]2CCCN2C(=O)[C@@H](Cc2ccccc2)NC(=O)[C@H](CC(C)C)NC(=O)[C@H](CCCNC(=N)N)NC(=O)[C@H](C(C)C)NC(=O)[C@@H]2CCCN2C(=O)[C@@H](CCCNC(=N)N)NC1=O (HELM PEPTIDE1{L.[dF].P.V.[Orn].L.[dR].P.V.R}$PEPTIDE1,PEPTIDE1,1:R1-10:R2$$$V2.0)	16.47
CC(C)C[C@@H]1NC(=O)[C@H](CCCN)NC(=O)[C@H](C(C)C)NC(=O)[C@@H]2CCCN2C(=O)[C@@H](Cc2c[nH]cn2)NC(=O)[C@H](CC(C)C)NC(=O)[C@H](CCCN)NC(=O)[C@H](C(C)C)NC(=O)[C@@H]2CCCN2C(=O)[C@@H](Cc2c[nH]cn2)NC1=O	14.01
CC(C)C[C@@H]1NC(=O)[C@H](CCCNC(=N)N)NC(=O)[C@H](C(C)C)NC(=O)[C@@H]2CCCN2C(=O)[C@@H](Cc2ccccc2)NC(=O)[C@H](CC(C)C)NC(=O)[C@H](CCCN)NC(=O)[C@H](C(C)C)NC(=O)[C@@H]2CCCN2C(=O)[C@@H](CCCNC(=N)N)NC1=O	16.47

Query :: What does the data say about its Retention_time? Entry: CC(C)C[C@@H]1NC(=O)[C@H](CCCN)NC(=O)[C@H](C(C)C)NC(=O)[C@@H]2CCCN2C(=O)[C@@H](Cc2ccccc2)NC(=O)[C@H](CC(C)C)NC(=O)[C@H](CCCN)NC(=O)[C@H](C(C)C)NC(=O)[C@@H]2CCCN2C(=O)[C@@H](Cc2ccccc2)NC1=O [GRAMICIDIN S] (HELM PEPTIDE1{L.[dF].P.V.[Orn].L.[dF].P.V.[Orn]}$PEPTIDE1,PEPTIDE1,1:R1-10:R2$$$V2.0)
Result :: 18.57

* * *

tested on: Staphylococcus aureus; test: Antibacterial activity against methicillin-resistant Staphylococcus aureus ATCC USA300 incubated for 16 to 20 hrs by CLSI based broth microdilution method; type: functional; conditions: time 16-20 hrs
Residues, ends and D or L forms follow the SMILES beside them.
OBSERVATION TYPE: MIC (µg/mL)
One number for each entry, in µg/mL.

COMPOUND	UNIT SYMBOL	MIC
CC(C)C[C@@H]1NC(=O)[C@H](CCCN)NC(=O)[C@H](C(C)C)NC(=O)[C@H](Cc2c[nH]cn2)NC(=O)[C@@H](Cc2ccccc2)NC(=O)[C@H](CC(C)C)NC(=O)[C@H](CCCN)NC(=O)[C@H](C(C)C)NC(=O)[C@H](Cc2c[nH]cn2)NC(=O)[C@@H](Cc2ccccc2)NC1=O	µg/mL	128

Query :: What does the data say about its MIC? Entry: CC(C)C[C@@H]1NC(=O)[C@H](CCCN)NC(=O)[C@H](C(C)C)NC(=O)[C@@H]2CCCN2C(=O)[C@@H](Cc2ccccc2)NC(=O)[C@H](CC(C)C)NC(=O)[C@H](CCCN)NC(=O)[C@H](C(C)C)NC(=O)[C@@H]2CCCN2C(=O)[C@@H](CCCNC(=N)N)NC1=O (HELM PEPTIDE1{L.[dF].P.V.[Orn].L.[dR].P.V.[Orn]}$PEPTIDE1,PEPTIDE1,1:R1-10:R2$$$V2.0)
Result :: 8

* * *

test: Hemolytic activity in sheep erythrocytes incubated for 30 mins by absorbance based assay; format: toxicity, cell-based, Ovis aries, Erythrocyte
Residues, ends and D or L forms follow the SMILES beside them.
Give HC50 at 0.5 h for every item shown.
One number for each entry, in µM.

MOLECULE	UNIT SYMBOL	HC50 at 0.5 h
CC(C)C[C@@H]1NC(=O)[C@H](CCCN)NC(=O)[C@H](C(C)C)NC(=O)[C@@H]2CCCN2C(=O)[C@@H](Cc2ccccc2)NC(=O)[C@H](CC(C)C)NC(=O)[C@H](CCCNC(=N)N)NC(=O)[C@H](C(C)C)NC(=O)[C@@H]2CCCN2C(=O)[C@@H](Cc2ccccc2)NC1=O	µM	46.2
CC(C)C[C@@H]1NC(=O)[C@H](CCCNC(=N)N)NC(=O)[C@H](C(C)C)NC(=O)[C@@H]2CCCN2C(=O)[C@@H](Cc2ccccc2)NC(=O)[C@H](CC(C)C)NC(=O)[C@H](CCCNC(=N)N)NC(=O)[C@H](C(C)C)NC(=O)[C@@H]2CCCN2C(=O)[C@@H](Cc2ccccc2)NC1=O	µM	25.4
CC(C)C[C@@H]1NC(=O)[C@H](CCCN)NC(=O)[C@H](C(C)C)NC(=O)[C@@H]2CCCN2C(=O)[C@@H](Cc2ccccc2)NC(=O)[C@H](CC(C)C)NC(=O)[C@H](CCCN)NC(=O)[C@H](C(C)C)NC(=O)[C@@H]2CCCN2C(=O)[C@@H](Cc2ccccc2)NC1=O [GRAMICIDIN S] (HELM PEPTIDE1{L.[dF].P.V.[Orn].L.[dF].P.V.[Orn]}$PEPTIDE1,PEPTIDE1,1:R1-10:R2$$$V2.0)	µM	60.1

Now consider the entry below.
Query :: What does the data say about its HC50 at 0.5 h? Entry: CC(C)C[C@@H]1NC(=O)[C@H](CCCN)NC(=O)[C@H](C(C)C)NC(=O)[C@@H]2CCCN2C(=O)[C@@H](Cc2ccccc2)NC(=O)[C@H](CC(C)C)NC(=O)[C@H](CCCNC(=N)N)NC(=O)[C@H](C(C)C)NC(=O)[C@@H]2CCCN2C(=O)[C@@H](CCCNC(=N)N)NC1=O (HELM PEPTIDE1{L.[dF].P.V.[Orn].L.[dR].P.V.R}$PEPTIDE1,PEPTIDE1,1:R1-10:R2$$$V2.0)
Result :: 87.2

The measured values listed here are drawn from ChEMBL document CHEMBL5500408.
